Biological target: human DNA topoisomerase I (HuTopI) (Homo sapiens, UniProt P11387)
Sequence (P11387 1-765): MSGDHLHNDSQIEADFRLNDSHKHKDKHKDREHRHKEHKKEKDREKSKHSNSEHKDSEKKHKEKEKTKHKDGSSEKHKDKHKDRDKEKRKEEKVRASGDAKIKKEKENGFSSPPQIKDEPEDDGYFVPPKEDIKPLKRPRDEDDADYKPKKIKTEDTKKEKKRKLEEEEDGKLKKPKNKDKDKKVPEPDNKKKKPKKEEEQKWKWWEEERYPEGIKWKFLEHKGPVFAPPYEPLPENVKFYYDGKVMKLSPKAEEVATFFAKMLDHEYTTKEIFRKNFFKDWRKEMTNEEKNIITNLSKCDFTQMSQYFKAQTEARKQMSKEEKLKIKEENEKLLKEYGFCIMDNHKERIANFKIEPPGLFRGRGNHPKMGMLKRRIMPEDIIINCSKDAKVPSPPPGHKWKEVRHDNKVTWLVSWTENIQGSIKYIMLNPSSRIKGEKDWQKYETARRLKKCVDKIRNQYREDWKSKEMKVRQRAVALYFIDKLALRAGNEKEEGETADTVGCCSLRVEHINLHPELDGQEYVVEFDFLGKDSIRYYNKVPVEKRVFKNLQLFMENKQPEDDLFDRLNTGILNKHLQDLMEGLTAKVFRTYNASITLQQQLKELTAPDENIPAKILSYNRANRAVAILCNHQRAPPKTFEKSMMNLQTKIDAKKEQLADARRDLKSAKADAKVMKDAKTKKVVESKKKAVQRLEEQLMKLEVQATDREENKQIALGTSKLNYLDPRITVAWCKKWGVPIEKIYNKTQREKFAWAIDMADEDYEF
quantity: IC50 (µM)

> print(dat)
                                     smiles                              targetentity  readingunit  testresult
1  O=C1C=C(NCCc2cc(Br)c(O)c(Br)c2)C(=O)c2ncccc21  human DNA topoisomerase I (HuTopI) (Homo sapiens, UniProt P11387)           µM           5
